# tgt: Human recombinant p38α (Homo sapiens)
# Construct: c-myc (N); 6His (N)
# assay-info: In vitro enzyme assay, p38α kinase inhibition
# details: activated p38α, Myelin Basic Protein substrate, 33P ATP
Each item that follows carries a reported IC50.

compound	tgt	measured-metric	meas-value
Cc1ccc(C(=O)NC2CC2)cc1NC(=O)c1ccc(OCc2ccccn2)c(F)c1 [5[y]]	Human recombinant p38α (Homo sapiens)	IC50	6 nM

In: Item: Cc1ccc(C(=O)NC2CC2)cc1NC(=O)c1ccc(OCc2ncccc2C)cc1 Test system: Human recombinant p38α (Homo sapiens) Read-out: IC50 Value: ?
Out: 59 nM

In: Item: Cc1ccc(C(=O)NC2CC2)cc1NC(=O)c1cnc(OCc2nccs2)nc1 [23[a]] Test system: Human recombinant p38α (Homo sapiens) Read-out: IC50 Value: ?
Out: 170 nM

* * *

# tgt: Human recombinant p38α (Homo sapiens, UniProt Q16539)
# Construct: c-myc (N); 6His (N)
# Sequence (Q16539 whole entry): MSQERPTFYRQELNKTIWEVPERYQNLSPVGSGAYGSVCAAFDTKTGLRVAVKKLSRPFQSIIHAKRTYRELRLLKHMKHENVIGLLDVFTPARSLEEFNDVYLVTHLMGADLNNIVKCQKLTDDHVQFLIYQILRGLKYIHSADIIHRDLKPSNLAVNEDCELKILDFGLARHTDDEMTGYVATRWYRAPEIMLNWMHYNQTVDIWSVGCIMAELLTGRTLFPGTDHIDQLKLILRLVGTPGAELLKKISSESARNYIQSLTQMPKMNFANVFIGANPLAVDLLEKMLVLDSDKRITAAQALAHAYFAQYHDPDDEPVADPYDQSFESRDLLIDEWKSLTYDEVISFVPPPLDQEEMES
# assay-info: In vitro enzyme assay, p38α kinase inhibition
# details: activated p38α, Myelin Basic Protein substrate, 33P ATP
measured-metric: IC50 (nM)
Return type: number; implicit unit nM.

A selection of reference data follows.
molecule	measured-metric	meas-value
Cc1ccc(C(=O)NC2CC2)cc1NC(=O)c1ccc(OCc2cn3ccccc3n2)cc1 [5[e]]	IC50	10
Cc1ccc(C(=O)NC2CC2)cc1NC(=O)c1ccc(OCc2cscn2)c(F)c1 [5[ac]]	IC50	7

In: I'd like to know its IC50. The molecule in question is Cc1nc(COc2ccc(C(=O)Nc3cc(C(=O)NC4CC4)ccc3C)cc2F)cs1 [5[z]]
Out: 7

In: I'd like to know its IC50. The molecule in question is COc1ccc(C(=O)Nc2cc(C(=O)NC3CCC3)ccc2C)cc1OC [Comparator Compound X, reference compound]
Out: 4400
